Below is a list of entries, each paired with its recorded polymerase ribozyme fitness (log ratio) value.
B1: TPR 5TU (parent)
chain: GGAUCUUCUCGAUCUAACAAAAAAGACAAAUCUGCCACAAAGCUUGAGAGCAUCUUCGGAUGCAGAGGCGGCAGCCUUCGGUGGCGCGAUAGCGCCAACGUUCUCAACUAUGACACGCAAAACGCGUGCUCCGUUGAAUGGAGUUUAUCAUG

variants of: B1; assay: polymerase ribozyme fitness, log enrichment relative to wild type (log ratio); higher = more active; in vitro selection for triplet polymerase activity
This sample holds only a part of the variants without activity.

Answered cases to consult:
{"variantKey": "C43U C63U A73C U78A G84U U90G C93U A119U A142U", "polymerase ribozyme fitness (log ratio)": "≤ -4.2"}
{"variantKey": "A3U G92A A113G G133U A142U U146G", "polymerase ribozyme fitness (log ratio)": "≤ -4.2"}
{"variantKey": "A73C U77C C93U", "polymerase ribozyme fitness (log ratio)": "≤ -4.2"}
{"variantKey": "U55C C93G", "polymerase ribozyme fitness (log ratio)": -3.57}
{"variantKey": "C38U U82A U144A C149G", "polymerase ribozyme fitness (log ratio)": "≤ -4.2"}

Now take the following variant into account.
Enquiry: Reported polymerase ribozyme fitness (log ratio), variant A41C C43A A60G : ____
Return: ≤ -4.2

These measurements were taken from the RNAGym collection of RNA variant scans (doi:10.1073/pnas.2313332121).
